Assay: drug combination growth inhibition, ovarian cancer – cell-based, oncology-focused library, rucaparib conditional, profiling panel (AID 1508598)
Settings: patient-derived ovarian cancer cells, CellTiter-Glo viability, 144 h; at 0.00122 µM; OCI-C5x cells; with rucaparib 10 µM; hits give low values; 100% = cells with rucaparib alone
We begin with a simple list: items and their reported viability.
State just the number; it will be interpreted in %.

chemical-structure | readout-units | viability
CCCc1ccc(OCC(=O)N(Cc2nc(-c3cccnc3)no2)C(C)C)cc1 | % | 125

Lab book: viability of CO[C@H]1C[C@@H]2CC[C@@H](C)[C@@](O)(O2)C(=O)C(=O)N2CCCC[C@H]2C(=O)O[C@H]([C@@H](C)C[C@@H]2CC[C@@H](OCCO)[C@H](OC)C2)CC(=O)[C@H](C)/C=C(\C)[C@H](O)[C@@H](OC)C(=O)[C@H](C)C[C@H](C)/C=C/C=C/C=C/1C noted as 106

response.value for C[C@]12CC[C@H]3c4ccc(O)cc4CC[C@H]3[C@@H]1CCC2=O (field: viability) = 112
